# Tested on: HuM2e antibody 23K12
# Type: binding, human
Returns yes if the recorded Signal (peptides that bind to 23K21 and 8I10) is greater than or equal to 1000, and no otherwise.

Substance	Answer Label
430 (SLLTEVETPIRNEWGCRCNDSRD; epitope peptide) [compound 430]	no
511 (SLLCEVGCSLLTEV; epitope peptide) [compound 511]	yes
383 (CSLLTEVGCSLLTEC; epitope peptide) [compound 383]	yes
505 (SLLTEKETPIRNEWGCRCNDSSD; epitope peptide) [compound 505]	yes
323 (SLCTEVGSLLTCV; epitope peptide) [compound 323]	yes
335 (CSCLCEVGCSLLTEC; epitope peptide) [compound 335]	yes
339 (MSLLTECGMSLLTEV; epitope peptide) [compound 339]	yes
365 (CSLLTEVCMSLLTEC; epitope peptide) [compound 365]	yes
293 (CSLLTEVGMSLLTEV; epitope peptide) [compound 293]	yes
344 (SMLTEVETPIRNEWGCRCNDSSD; epitope peptide) [compound 344]	yes
705 (SLLTEVKTPIRNEWGCRCNDSSD; epitope peptide) [compound 705]	no
684 (SLLTEVETPIRNHWGCRCNDSSD; epitope peptide) [compound 684]	no
375 (SLLTEVETPIRNEWGCRVNDSSD; epitope peptide) [compound 375]	yes
702 (SLLTEVETPIRNYWGCRCNDSSD; epitope peptide) [compound 702]	no
671 (SLLTEVETPIRNEPGCRCNDSSD; epitope peptide) [compound 671]	no
230 (CTPIRNEWGSRSNDSSCSLLTEVETC; epitope peptide) [compound 230]	no
532 (MSCLTEVGMSLLTEV; epitope peptide) [compound 532]	no
466 (SCLTEVGCSLLTEV; epitope peptide) [compound 466]	yes
328 (SLETEVETPIRNEWGCRCNDSSD; epitope peptide) [compound 328]	yes
324 (SLCTEVGSLLTEV; epitope peptide) [compound 324]	yes
490 (SVLTEVETPIRNEWGCRCNDSSD; epitope peptide) [compound 490]	yes
297 (CSLLTEVGMCLCTCV; epitope peptide) [compound 297]	yes
696 (SLLTEVETPIRNEHGCRCNDSSD; epitope peptide) [compound 696]	no
683 (SLLTEVETPIRNEWGCACNDSSD; epitope peptide) [compound 683]	no
535 (SLLTEVETPIRNEWGCRCNFSSD; epitope peptide) [compound 535]	no
434 (SLLTEVETPIRNEWGCRCNDSYD; epitope peptide) [compound 434]	no
680 (SLLTEVETPIVNEWGCRCNDSSD; epitope peptide) [compound 680]	no
549 (SLLTEVETFIRNEWGCRCNDSSD; epitope peptide) [compound 549]	no
711 (CSLLTEVGSLCTEV; epitope peptide) [compound 711]	no
487 (SLLTNVETPIRNEWGCRCNDSSD; epitope peptide) [compound 487]	yes

====

# Test system: anti-M2 human monoclonal antibody Z3G1
# Format: binding

Substance	Signal (peptides that bind to Z3G1)
555 (SLLTEVETPIRNEWGCRCWDSSD; epitope peptide) [compound 555]	2462
1316 (CSLLCEVETPIRNE; epitope peptide) [compound 1316]	2527
1347 (MSLLCEVGMSLLTCV; epitope peptide) [compound 1347]	2784
1474 (CVETPIRNEWSLLTEVETPCEVETPIRNE; epitope peptide; MISC_FEATURE (1)..(1): C is an attachment site for a CLIP; MISC_FEATURE (10)..(10): W is an attachment site for a CLIP; MISC_FEATURE (11)..(11): S is an attachment site for a CLIP; MISC_FEATURE (29)..(29): E is an attachment site for a CLIP) [compound 1474]	1986
1256 (MILLTEVETPIRNEWGCRCN; epitope peptide) [compound 1256]	1634
316 (MSLLTEVGCSLLTEV; epitope peptide) [compound 316]	2650
1331 (MSLLCEVCTPIRNE; epitope peptide) [compound 1331]	2601
435 (SLLTEVETP; epitope peptide) [compound 435]	2380
1446 (CETPIRNEWGLLTEVETPICLTEVETPIR; epitope peptide; MISC_FEATURE (1)..(1): C is an attachment site for a CLIP; MISC_FEATURE (10)..(10): G is an attachment site for a CLIP; MISC_FEATURE (11)..(11): L is an attachment site for a CLIP; MISC_FEATURE (29)..(29): R is an attachment site for a CLIP) [compound 1446]	2367
1373 (SLLCEVETPIRNEWGC; epitope peptide) [compound 1373]	2281
417 (SLLTEVETPIRNEWGCRCNDVSD; epitope peptide) [compound 417]	2389
365 (CSLLTEVCMSLLTEC; epitope peptide) [compound 365]	1891
516 (SLLTEVETPIRNEWGCRCPDSSD; epitope peptide) [compound 516]	2449
1361 (SLLCEVETPIRNC; epitope peptide) [compound 1361]	2460
689 (SLLTEVETPIRNEWGCRCGDSSD; epitope peptide) [compound 689]	2343
1462 (CETPIRNEWGLLTEVETPICTEVETPIRN; epitope peptide; MISC_FEATURE (1)..(1): C is an attachment site for a CLIP; MISC_FEATURE (10)..(10): G is an attachment site for a CLIP; MISC_FEATURE (11)..(11): L is an attachment site for a CLIP; MISC_FEATURE (29)..(29): N is an attachment site for a CLIP) [compound 1462]	1710
291 (MSLLTEVGMCLCTCV; epitope peptide) [compound 291]	2842

====

# Tested on: HuM2e antibody 23K12
# Format: binding, human
Measured Metric: Signal (peptides that bind to 23K21 and 8I10)

Substance	Val
542 (MSLCTEVGMSLLTCV; epitope peptide) [compound 542]	927
700 (SLLTEVETSIRNEWGCRCNDSSD; epitope peptide) [compound 700]	715
537 (SLLTEVEPPIRNEWGCRCNDSSD; epitope peptide) [compound 537]	953
455 (CLCTCVGSLLTEC; epitope peptide) [compound 455]	1303
612 (SLLTEVETPIRNEWGCRCIDSSD; epitope peptide) [compound 612]	812
334 (CSLLTEVGMSLCTEV; epitope peptide) [compound 334]	1682
366 (SLLTEVETPIRNEWWCRCNDSSD; epitope peptide) [compound 366]	1498
682 (SLLTEVETPIRNEWGSRCNDSSD; epitope peptide) [compound 682]	729
329 (SLLTEVGSCLCEC; epitope peptide) [compound 329]	1708
476 (CSLLTEVGCSCLCEV; epitope peptide) [compound 476]	1206
582 (SLLTEVETPIRAEWGCRCNDSSD; epitope peptide) [compound 582]	856
285 (MSLLTEVGMSLLTCV; epitope peptide) [compound 285]	2389
284 (ASLLTEVGSLLTCV; epitope peptide) [compound 284]	2443
417 (SLLTEVETPIRNEWGCRCNDVSD; epitope peptide) [compound 417]	772

====

# Test system: anti-M2 human monoclonal antibody Z3G1
# Format: binding

Substance	Measurement Target	Signal (peptides that bind to Z3G1)
1251 (MDLLTEVETPIRNEWGCRCN; epitope peptide) [compound 1251]	anti-M2 human monoclonal antibody Z3G1	2726
535 (SLLTEVETPIRNEWGCRCNFSSD; epitope peptide) [compound 535]	anti-M2 human monoclonal antibody Z3G1	2509
1342 (MSLLTCVGMSLLCEV; epitope peptide) [compound 1342]	anti-M2 human monoclonal antibody Z3G1	2712

====

# System: HuM2e antibody 23K12
# Type: binding, human
Values of Signal (peptides that bind to 23K21 and 8I10) strictly less than 900 map to criterion met, and values of at least 900 map to criterion not met.

Substance	Answer Label
594 (SLLTEVQTPIRNEWGCRCNDSSD; epitope peptide) [compound 594]	criterion met
647 (SLLTEVETPIRNEWGHRCNDSSD; epitope peptide) [compound 647]	criterion met
362 (CSLLTECGMCLLTEV; epitope peptide) [compound 362]	criterion not met
458 (CSLLTECGSCLTEV; epitope peptide) [compound 458]	criterion not met
687 (SLLTEVETPCRNEWGCRCNDSSD; epitope peptide) [compound 687]	criterion met
377 (SLKTEVETPIRNEWGCRCNDSSD; epitope peptide) [compound 377]	criterion not met
447 (SLLTEVETPIRNEWGCRCNDS; epitope peptide) [compound 447]	criterion met
389 (SLLTEVETPYRNEWGCRCNDSSD; epitope peptide) [compound 389]	criterion not met
421 (SLLTEVETPIRNEWGCRCNDSED; epitope peptide) [compound 421]	criterion not met
311 (SLLTEVGCLLTEV; epitope peptide) [compound 311]	criterion not met
400 (SLLTEVETPIRNEWGCRCNVSSD; epitope peptide) [compound 400]	criterion met

These entries and their values trace back to patent US8932597B2.
